System: JAK1(JH1domain-catalytic)
Settings: concentration: 1 μM, replicates: in singlicate; n = 1;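 note: KINOMEscan kinase panel screen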

{"Compound": "N#Cc1ccc(Oc2ccc(Nc3ncnc4cc[nH]c34)cc2Cl)cc1", "%Inh, %": 12}
{"Compound": "Cn1ccc2ncnc(Nc3ccc(Oc4cccc(Cl)c4)c(Cl)c3)c21", "%Inh, %": 16}
{"Compound": "CCc1nc(-c2cccc(C)c2)c(-c2ccnc(NC(=O)c3ccccc3)c2)s1", "%Inh, %": 22}
{"Compound": "Clc1cc(Nc2ncnc3cc[nH]c23)ccc1OCc1ccccn1", "%Inh, %": 3}
{"Compound": "CS(=O)(=O)CCNCc1ccc(-c2ccc3ncnc(Nc4ccc(OCc5ccccc5)c(Cl)c4)c3c2)o1.Cl [GW574783]", "%Inh, %": 9}

----------
Tested on: HASPIN
Construct: gene GSG2
Details: concentration: 1 μM, replicates: in singlicate; n = 1

{"Molecule": "COc1cc2ncnc(Nc3ccc(OCc4ccccc4Br)c(Cl)c3)c2cc1OC.Cl", "%Inh [%]": 34}
{"Molecule": "COc1ccc(NC(=O)c2ccc(-c3cc(-c4nnc(C)o4)ccc3C)cc2)cc1", "%Inh [%]": 21}
{"Molecule": "Fc1cccc(COc2ccc(Nc3ncnc4cc[nH]c34)cc2Cl)c1", "%Inh [%]": 0}
{"Molecule": "Cc1ccc(C)c(NC(=O)NCCNc2ccnc(Nc3ccc(F)cc3)n2)c1", "%Inh [%]": 4}
{"Molecule": "Fc1cccc(COc2ccc(Nc3ncnc4nn5ccccc5c34)cc2Cl)c1", "%Inh [%]": 63}
{"Molecule": "Fc1cccc(COc2ccc(Nc3ncnc4sc(-c5ccc[nH]5)cc34)cc2Cl)c1", "%Inh [%]": 0}
{"Molecule": "CCn1c(-c2ccncc2)nc2cnccc21", "%Inh [%]": 57}
{"Molecule": "O=C(NCCCN1CCCC1=O)c1cnc(NCc2cc(Cl)ccc2Cl)nc1NC1CCNCC1", "%Inh [%]": 0}
{"Molecule": "CCc1nc(-c2cccc(N(C)S(=O)(=O)c3ccccc3)c2)c(-c2ccnc(Nc3ccc(N4CCN(C(C)=O)CC4)nc3)n2)s1", "%Inh [%]": 0}
{"Molecule": "Fc1ccc(-c2ncn(CCCNCc3ccccc3)c2-c2ccncc2)cc1", "%Inh [%]": 12}
{"Molecule": "FC(F)(F)c1ccc(-c2nn3ncccc3c2-c2ccnc(Nc3cccc(C(F)(F)F)c3)n2)cc1", "%Inh [%]": 0}
{"Molecule": "CC(C)(C)OC(=O)NC1CCCN(c2cc(-c3ccc4c(N)n[nH]c4c3)nc(N)n2)C1 (stereo not drawn)", "%Inh [%]": 1}
{"Molecule": "Cl.c1ccc(Cn2ccc3cc(Nc4ncnc5ccccc45)ccc32)cc1", "%Inh [%]": 1}
{"Molecule": "COc1ccc(NC(=O)Nc2ccc(C)c(-c3ccc(C(=O)Nc4ccncc4)cc3)c2)cc1", "%Inh [%]": 0}
{"Molecule": "Oc1ccc2ncnc(Nc3ccc(OCc4ccccc4)cc3)c2c1", "%Inh [%]": 17}
{"Molecule": "COc1ccc(-c2oc3ncnc(N)c3c2-c2ccc(OC)cc2)cc1", "%Inh [%]": 64}
{"Molecule": "FC(F)(F)c1cc(Nc2nccc(-c3c(-c4ccc(Cl)cc4)nn4ncccc34)n2)ccc1Cl", "%Inh [%]": 0}
{"Molecule": "NC(=O)c1sc(-n2cnc3ccccc32)cc1OCc1ccccc1F", "%Inh [%]": 49}

----------
System: PIM2
Settings: concentration: 1 μM, replicates: in singlicate; n = 1

{"Molecule": "CSc1nn2c(=O)cc(N3CCOCC3)nc2n1Cc1cccc(Cl)c1Cl", "Assayed target": "PIM2", "%Inh, %": 0}
{"Molecule": "COc1ccc(-c2oc3ncnc(N)c3c2-c2ccc(OC)cc2)cc1", "Assayed target": "PIM2", "%Inh, %": 0}
{"Molecule": "Cl.c1ccc(Cn2ccc3cc(Nc4ncnc5ccccc45)ccc32)cc1", "Assayed target": "PIM2", "%Inh, %": 1}
{"Molecule": "Oc1ccc2ncnc(Nc3ccc(OCc4ccccc4)cc3)c2c1", "Assayed target": "PIM2", "%Inh, %": 0}
{"Molecule": "O=C(c1ccc(-c2cc(-c3c[nH]nc3-c3ccccn3)ccn2)cc1)N1CCCC1", "Assayed target": "PIM2", "%Inh, %": 21}
{"Molecule": "CNc1nccc(-c2c(-c3ccc(F)cc3)ncn2C2CCN(C)CC2)n1", "Assayed target": "PIM2", "%Inh, %": 0}
{"Molecule": "Cl.Fc1ccccc1COc1ccc(Nc2ncnc3ccc(-c4nnc(C(F)(F)F)o4)cc23)cc1Cl", "Assayed target": "PIM2", "%Inh, %": 0}
{"Molecule": "COC(=O)c1c(-c2ccccc2)c2cc(Cl)ccc2c(=O)n1Cc1ccc(S(C)(=O)=O)cc1", "Assayed target": "PIM2", "%Inh, %": 16}
{"Molecule": "Fc1ccc(-c2ncn(CCCNCc3ccccc3)c2-c2ccncc2)cc1", "Assayed target": "PIM2", "%Inh, %": 23}
{"Molecule": "Cn1ccc2ncnc(Oc3ccc(NC(=O)Nc4cccnc4)c(Cl)c3)c21", "Assayed target": "PIM2", "%Inh, %": 0}
{"Molecule": "c1ccc(-c2ccc3c(-c4ccnc(Nc5ccc6c(c5)OCCO6)n4)cnn3n2)cc1", "Assayed target": "PIM2", "%Inh, %": 0}
{"Molecule": "CC(C)(C)c1ccc(-n2cnc3c(N)ncnc32)cc1", "Assayed target": "PIM2", "%Inh, %": 0}
{"Molecule": "Clc1cc(Nc2ncnc3cc[nH]c23)ccc1OCc1ccccn1", "Assayed target": "PIM2", "%Inh, %": 10}
{"Molecule": "FC(F)(F)c1ccc(-c2cc(-c3c[nH]nc3-c3ccccn3)ccn2)cc1", "Assayed target": "PIM2", "%Inh, %": 0}
{"Molecule": "C[C@H]1CC[C@@H](C(=O)Nc2ccccc2)CN1c1cc(-c2ccc3c(N)n[nH]c3c2)nc(N)n1", "Assayed target": "PIM2", "%Inh, %": 0}
{"Molecule": "Cl.c1ccc(Cn2ncc3cc(Nc4ncnc5ccccc45)ccc32)cc1", "Assayed target": "PIM2", "%Inh, %": 0}
{"Molecule": "Fc1cccc(COc2ccc(Nc3ncnc4sc(-c5ccc[nH]5)cc34)cc2Cl)c1", "Assayed target": "PIM2", "%Inh, %": 0}
{"Molecule": "COc1cc2ncnc(Nc3ccc(OCc4ccccc4Br)c(Cl)c3)c2cc1OC.Cl", "Assayed target": "PIM2", "%Inh, %": 0}
{"Molecule": "COc1ccc(Nc2nccc(N3CCC(NC(=O)c4cccc(NC(C)=O)c4)C3)n2)cc1 (stereo not drawn)", "Assayed target": "PIM2", "%Inh, %": 0}
{"Molecule": "CN1CCC(n2cnc(-c3ccc(F)cc3)c2-c2ccnc(NC3CCNCC3)n2)CC1", "Assayed target": "PIM2", "%Inh, %": 0}
{"Molecule": "O=C(Nc1ccccc1F)NC1CCN(c2ccnc(Nc3ccc(F)cc3)n2)C1 (stereo not drawn)", "Assayed target": "PIM2", "%Inh, %": 0}
{"Molecule": "Cc1ccc(NC(=O)c2cccc(C#N)c2)cc1-c1ccc(C(=O)Nc2ccncc2)cc1", "Assayed target": "PIM2", "%Inh, %": 0}
{"Molecule": "COC(=O)c1cccc(NC(=O)NCCNc2ccnc(Nc3ccc(F)cc3)n2)c1", "Assayed target": "PIM2", "%Inh, %": 0}
{"Molecule": "O=C(Nc1n[nH]c2nc(-c3ccco3)c(Br)cc12)c1ccc(CN2CCCC2)cc1.O=C(O)[C@H](O)[C@@H](O)C(=O)O", "Assayed target": "PIM2", "%Inh, %": 0}
{"Molecule": "Nc1nc(-c2cccnc2)c(-c2ccnc3ccccc23)s1", "Assayed target": "PIM2", "%Inh, %": 0}
{"Molecule": "Nc1n[nH]c2nnc(-c3ccccc3)cc12", "Assayed target": "PIM2", "%Inh, %": 0}
{"Molecule": "Clc1cccc(-c2nc(Nc3ccncc3)c3ccccc3n2)c1", "Assayed target": "PIM2", "%Inh, %": 11}
{"Molecule": "Cc1ccc(O)cc1Nc1cc(C(F)(F)F)nc2ccc(-c3ccncc3)cc12", "Assayed target": "PIM2", "%Inh, %": 3}
{"Molecule": "Clc1ccc(-c2cc(-c3c[nH]nc3-c3ccccn3)ccn2)cc1", "Assayed target": "PIM2", "%Inh, %": 30}
{"Molecule": "O=C(CCO)NCCn1ccc2ncnc(Nc3ccc(Oc4cccc(C(F)(F)F)c4)c(Cl)c3)c21", "Assayed target": "PIM2", "%Inh, %": 0}
{"Molecule": "CC(C)N1CCC(n2cnc(-c3ccc(F)cc3)c2-c2ccnc(N)n2)CC1", "Assayed target": "PIM2", "%Inh, %": 22}
{"Molecule": "O=C(NCCCN1CCCC1=O)c1cnc(NCc2cc(Cl)ccc2Cl)nc1NC1CCNCC1", "Assayed target": "PIM2", "%Inh, %": 0}
{"Molecule": "Cl.Cn1ccc(-c2cccc(Nc3ccnc4cc(-c5nccs5)ccc34)c2)n1", "Assayed target": "PIM2", "%Inh, %": 0}
{"Molecule": "Cc1cccc(-c2nc(Nc3ccc4[nH]nnc4c3)c3ccccc3n2)n1", "Assayed target": "PIM2", "%Inh, %": 0}
{"Molecule": "CC(=O)Nc1n[nH]c2ncc(-c3ccccc3)cc12", "Assayed target": "PIM2", "%Inh, %": 0}
{"Molecule": "Nc1nc(-c2ccc3c(N)n[nH]c3c2)cc(N2CCC[C@@H](C(=O)Nc3ccccc3)C2)n1.O=C(O)C(F)(F)F.O=C(O)C(F)(F)F", "Assayed target": "PIM2", "%Inh, %": 0}
